Origin of measurements: paper PMC8708503

# System: Methicillin Resistant Staphylococcus aureus DMST 20654
# protocol-details: Antibacterial assay (CLSI), MRSA
# Type: cell-based
# Design: key: inactive: Inactive at >128 μg/mL
# experimental-conditions: Inactive at >128 μg/mL
# Procedure: Five microorganism cultures (Methicillin resistant S. aureus DMST 20654, S. aureus ATCC 25923, S. sonnei ATCC 11060, B. subtilis ATCC 6633, and B. cereus ATCC 11778) were used. The experiments were performed at the Department of Microbiology, Faculty of Science, Khon Kaen University, Thailand. The antibacterial assay was performed as recommended by the Clinical and Laboratory Standards Institute. The standard drugs kanamycin and chloramphenicol were used as positive controls.
parameter: MIC, Methicillin Resistant Staphylococcus aureus DMST 20654

# molecule, result
measured = [
    ("CC1(C)CCCC2(C)C1C(O)CC1(C)C3CCc4cocc4C3(C)CCC21 (stereo not shown)", "inactive"),
    ("NC[C@H]1O[C@H](O[C@H]2[C@H](O)[C@@H](O[C@H]3O[C@H](CO)[C@@H](O)[C@H](N)[C@H]3O)[C@H](N)C[C@@H]2N)[C@H](O)[C@@H](O)[C@@H]1O [Kanamycin, reference compound]", "4 µg/mL"),
    ("CC(=CC(=O)OC1CC2(C)c3cocc3CCC2C2(C)CC(O)C3C(C)(C)CCCC3(C)C12)CC(=O)O (stereo not shown)", "inactive"),
    ("CC(=O)OC1CC2(C)C3CCC4=C(C(O)OC4=O)C3(C)CC(OC(=O)C=C(C)CC(=O)O)C2C2(C)CCCC(C)(C)C12 (stereo not shown)", "inactive"),
    ("CC(=O)OC1CC2(C)C3CCc4cocc4C3(C)CC(OC(=O)CC(C)=CC(=O)O)C2C2(C)CCCC(C)(C)C12 (stereo not shown)", "inactive"),
    ("CC(=O)OC1CC2(C)C3CCC4=C(COC4=O)C3(C)CC(OC(=O)C=C(C)CC(=O)O)C2C2(C)CCCC(C)(C)C12 (stereo not shown)", "inactive"),
    ("CC(=O)OC1CC2(C)C3CCC4=C(COC4=O)C3(C)CC(OC(=O)CC(C)=CC(=O)O)C2C2(C)CCCC(C)(C)C12 (stereo not shown)", "inactive"),
]

====

# Test system: Bacillus subtilis ATCC 6633
# protocol-details: Antibacterial assay (CLSI), B. subtilis
# Type: cell-based
# experimental-conditions: Bacillus subtilis, ATCC6633; Inactive at >128 μg/mL

# compound, MIC (µg/mL)
records = [
    ("O=C(N[C@H](CO)[C@H](O)c1ccc([N+](=O)[O-])cc1)C(Cl)Cl [Chloramphenicol, reference compound]", 4),
    ("CC(=O)OC1CC2(C)C3CCc4cocc4C3(C)CC(OC(=O)CC(C)=CC(=O)O)C2C2(C)CCCC(C)(C)C12 (stereo not drawn)", 16),
    ("CC(=O)O[C@H]1C[C@]2(C)[C@H]([C@H](OC(=O)/C=C(\\C)CC(=O)O)C[C@]3(C)c4cocc4CC[C@@H]23)[C@@]2(C)CCCC(C)(C)[C@H]12", 8),
    ("CC(=O)OC1CC2(C)C3CCc4cocc4C3(C)CC(OC(=O)CC(=O)O)C2C2(C)CCCC(C)(C)C12 (stereo not drawn)", 32),
    ("CC(=O)OC1CC2(C)C3CCC4=C(COC4=O)C3(C)CC(OC(=O)C=C(C)CC(=O)O)C2C2(C)CCCC(C)(C)C12 (stereo not drawn)", 128),
    ("CC(=O)OC1CC2(C)C3CCC4=C(C(O)OC4=O)C3(C)CC(OC(=O)C=C(C)CC(=O)O)C2C2(C)CCCC(C)(C)C12 (stereo not drawn)", 64),
]
